Assignment: determine reported EC50 for the given binders.
Target: T1, CD25 protein (Sino Biological, 10165-H08H) (UniProt P01589 22-213)
T1 construct: Bought recombinant protein; It speaks elsewhere of human CD25; also called antigen CD25; IL-2Rα
T1 sequence (looked up): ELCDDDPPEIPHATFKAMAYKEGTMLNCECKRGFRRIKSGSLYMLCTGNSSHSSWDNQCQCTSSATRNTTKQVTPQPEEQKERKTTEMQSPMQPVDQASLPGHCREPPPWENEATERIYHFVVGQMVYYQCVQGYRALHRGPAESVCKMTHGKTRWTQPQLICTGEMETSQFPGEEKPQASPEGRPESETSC
Test: ELISA; CD25 protein coated in a dilution series, antibody at one fixed concentration, anti-human IgG/HRP
One number for each entry, in ng/mL.

{"BINDER": "CD25-MA251-IgG1 (antibody, V domains shown, also called CD25Q-MA251; control antibody) VH: QVQLKESGPGLVAPSQSLSITCTVSGFSLTSYGIQWVRQPPGKGLEWLGVIWAGGSTNYNSALMSRLSISKDNSKSQVFLKMNSLQTDDTAMYYCARAYGYDGSWLAYWGQGTLVTVSS VL: QIVLSQSPAILSASPGEKVTMTCRASSSVSYMHWYQQKPGSSPKPWIFATSNLASGVPARFSGSGSGTSYSLTINRVEAEDADTYYCQQWSSNPPTFGGGTKLEIKR", "EC50 / ng/mL": 10.6}
{"BINDER": "CD25Q11-BA402-IgG1 (antibody, V domains shown, IgG1 expressed in HEK293) VH: QVQLVQSGAEVKKPGESLKISCKGSGYSFSNYWIAWVRQMPGKGLEWMGIIYPGDSATRYSPSFQGQVTISADKSINTAYLQWSSLRASDTAMYYCARGPYYFEYWGQGTLVTVSS VL: DIVMTQSPSTLSASVGDRVTLTCRASQSISSYLAWYQQKPGKAPKLLIYKASTLESGVPSRFSGSGSGTEFTLTISSLQPDDFATYYCQHYNSYSVTFGGGTKVEIKR", "EC50 / ng/mL": 0.674}
{"BINDER": "CD25Q2-BA9-IgG1 (antibody, V domains shown, IgG1 expressed in HEK293; also called CD25Q-BA9-IgG1) VH: QVQLQQWGAGLLKPSETLSLTCAVYGGSFSGYYWSWIRQPPGKGLEWIGEIDHSGSTIYNPSLKSRVTISLDTSKNQFSLKLSSVTAADTALYYCARGEAFDIWGQGTMVTVSS VL: DIVMTQSPSTLSASVGDRVTITCRASQSLRSYLAWYQQKPGKAPKLLIYKASSLESGVPSRFSGSGSGTEFTLTISSLQPDDFATYYCQQYNSYSWTFGQGTKVEIKR", "EC50 / ng/mL": 3.33}

Prompt: Could you tell me which EC50 is on file for CD25Q3-BA125-IgG1 (antibody, V domains shown, IgG1; also called CD25Q2-BA125) VH: EVQLVQSGAEVKKPGESLKISCKGSGYSFANYWIVWVRQMPGKGLEWMGIIYPDDSETRYSPSFQGQVTFSADKSISTAYLQWSSLKASDTAMYYCTRGPYYSDYWGQGTLVTVSS VL: DIQMTQSPSTLSASVGDRVTITCRASQIISGYLAWYQQKPGKAPKLLIYKASSLESGVPSRFSGSGSGAEFTLTISSLQPDDFATYYCQQYNSYTWTFGQGTKVEIKR ?
Response: 1.61
